# Tested on: IGR37 cells (parental)
# Test name: Kinase inhibitor library screening, PrestoBlue cell viability, 1 or 10 μM, 72 h
# Conditions: IGR37 Parental; 10μΜ; 72 h; in %
Parameter: Cell viability in kinase inhibitor library screening, IGR37 Parental, 10μΜ

# annotated cases, reported Cell viability in kinase inhibitor library screening, IGR37 Parental, 10μΜ shown
{"Chem smiles": "Nc1nc(N)c2nc(-c3cccc(O)c3)c(-c3cccc(O)c3)nc2n1", "Result": 98.5}
{"Chem smiles": "Cc1ccc(-n2nc(C(C)(C)C)cc2NC(=O)Nc2ccc(OCCN3CCOCC3)c3ccccc23)cc1", "Result": 97.2}
{"Chem smiles": "CC[C@@H]1C(=O)N(C)c2cnc(Nc3ccc(C(=O)NC4CCN(C)CC4)cc3OC)nc2N1C1CCCC1", "Result": 1.3}
{"Chem smiles": "COc1ccc(Cl)c(Nc2nc3ccccc3nc2NS(=O)(=O)c2cccc(NC(=O)C(C)(C)N)c2)c1", "Result": 90.5}
{"Chem smiles": "CCC(=O)N1CCN(c2ccc(-n3c(=O)ccc4cnc5ccc(-c6cnc7ccccc7c6)cc5c43)cc2C(F)(F)F)CC1", "Result": 10.7}

Form field - read-out: Cell viability in kinase inhibitor library screening, IGR37 Parental, 10μΜ; system: IGR37 cells (parental); submitted item: `O=c1cc(N2CCOCC2)oc2c(-c3ccccc3)cccc12`
84.5

Form field - read-out: Cell viability in kinase inhibitor library screening, IGR37 Parental, 10μΜ; system: IGR37 cells (parental); submitted item: `Cn1cc(C2=C(c3cn(C4CCN(Cc5ccccn5)CC4)c4ccccc34)C(=O)NC2=O)c2ccccc21`
82.6

Form field - read-out: Cell viability in kinase inhibitor library screening, IGR37 Parental, 10μΜ; system: IGR37 cells (parental); submitted item: `O=C1NC(=O)/C(=C/c2ccc3nccc(-c4ccncc4)c3c2)S1`
4.7

###

# Tested on: 501Mel-GP cells (Dabrafenib-resistant)
# Test name: Kinase inhibitor library screening, PrestoBlue cell viability, 1 or 10 μM, 72 h
# Conditions: 501Mel GP; 1μΜ; 72 h; in %
Measured cell viability, 501Mel GP, 1μΜ, listed per entry for reference.
# respond with the number and nothing more

{"Compound": "COc1cccc(-c2cc(=O)c3ccccc3o2)c1N [PD98059]", "Result": 104.1}
{"Compound": "O=C(NOCC(O)CO)c1cc(Br)c(F)c(F)c1Nc1ccc(I)cc1F (centres unmarked) [PD318088]", "Result": 99.4}
{"Compound": "COc1cc2ncnc(Nc3ccc(O)c(Br)c3)c2cc1OC [WHI-P154]", "Result": 99.5}
{"Compound": "Cc1c(NC(=O)OC[C@@H]2COCCN2)cn2ncnc(Nc3ccc4c(cnn4Cc4cccc(F)c4)c3)c12 [BMS-599626 (AC480)]", "Result": 106.6}

Form field - read-out: cell viability, 501Mel GP, 1μΜ; system: 501Mel-GP cells (Dabrafenib-resistant); submitted item: O=C1NC(=O)C(c2ccccc2[N+](=O)[O-])=C1Nc1ccc(O)c(Cl)c1 [SB 415286]
100.2

Form field - read-out: cell viability, 501Mel GP, 1μΜ; system: 501Mel-GP cells (Dabrafenib-resistant); submitted item: C#Cc1cccc(Nc2ncnc3cc(OCCOC)c(OCCO)cc23)c1 [OSI-420 (Desmethyl Erlotinib)]
106.0

Form field - read-out: cell viability, 501Mel GP, 1μΜ; system: 501Mel-GP cells (Dabrafenib-resistant); submitted item: CCC[C@H](NC(=O)/C(C#N)=C/c1cccc(Br)n1)c1ccccc1 [WP1130, reference compound]
104.8

Form field - read-out: cell viability, 501Mel GP, 1μΜ; system: 501Mel-GP cells (Dabrafenib-resistant); submitted item: CNC(=O)c1c(F)cccc1Nc1nc(Nc2cc3c(cc2OC)CCN3C(=O)CN(C)C)nc2[nH]ccc12 [GSK1838705A, reference compound]
75.8

###

Measured cell viability, IGR37 Parental, 10μΜ, listed per entry for reference.
# Tested on: IGR37 cells (parental)
# Test name: Kinase inhibitor library screening, PrestoBlue cell viability, 1 or 10 μM, 72 h
# Conditions: IGR37 Parental; 10μΜ; 72 h; in %
# respond with the number and nothing more

{"Molecule": "CC(C)(C)c1cc(C=C(C#N)C#N)cc(Br)c1O", "Tested on": "IGR37 cells (parental)", "cell viability, IGR37 Parental, 10μΜ": 96.2}
{"Molecule": "COc1cc2ncnc(Nc3cccc(Cl)c3)c2cc1OC", "Tested on": "IGR37 cells (parental)", "cell viability, IGR37 Parental, 10μΜ": 98.8}
{"Molecule": "CN1CCN(c2ccc3nc(-c4c(N)c5c(F)cccc5[nH]c4=O)[nH]c3c2)CC1", "Tested on": "IGR37 cells (parental)", "cell viability, IGR37 Parental, 10μΜ": 64.0}
{"Molecule": "COc1cccc(-c2cc(=O)c3ccccc3o2)c1N", "Tested on": "IGR37 cells (parental)", "cell viability, IGR37 Parental, 10μΜ": 81.4}
{"Molecule": "CCO.N#CC(=C(/N)Sc1ccccc1N)/C(C#N)=C(\\N)Sc1ccccc1N", "Tested on": "IGR37 cells (parental)", "cell viability, IGR37 Parental, 10μΜ": 35.1}
{"Molecule": "Cc1cnc(Nc2ccc(OCCN3CCCC3)cc2)nc1Nc1cccc(S(=O)(=O)NC(C)(C)C)c1 [TG101348 (SAR302503)]", "Tested on": "IGR37 cells (parental)", "cell viability, IGR37 Parental, 10μΜ": 21.1}

Form field - read-out: cell viability, IGR37 Parental, 10μΜ; system: IGR37 cells (parental); submitted item: `CC(O)C(=O)O.CC(O)C(=O)O.CN1CCN(c2ccc3nc(-c4c(N)c5c(F)cccc5[nH]c4=O)[nH]c3c2)CC1`
76.1

Form field - read-out: cell viability, IGR37 Parental, 10μΜ; system: IGR37 cells (parental); submitted item: `C[C@@H]1CCN(C(=O)CC#N)C[C@@H]1N(C)c1ncnc2[nH]ccc12`
104.5

Form field - read-out: cell viability, IGR37 Parental, 10μΜ; system: IGR37 cells (parental); submitted item: CCC[C@H](NC(=O)/C(C#N)=C/c1cccc(Br)n1)c1ccccc1 [WP1130, reference compound]
-1.6

###

# Tested on: A375 cells (parental)
# Test name: Kinase inhibitor library screening, PrestoBlue cell viability, 1 or 10 μM, 72 h
# Conditions: A375 Parental; 1μΜ; 72 h
Parameter: cell viability (kinase inhibitor library screening) (%)
The figure you give is taken to be in %; do not add the unit.

Form field - read-out: cell viability (kinase inhibitor library screening); system: A375 cells (parental); submitted item: `Cn1cc(-c2ccc3ncc(Cc4ccc5ncccc5c4)n3n2)cn1`
108.4

Form field - read-out: cell viability (kinase inhibitor library screening); system: A375 cells (parental); submitted item: `COc1cc(Nc2ncc3c(n2)-c2ccc(Cl)cc2C(c2c(F)cccc2OC)=NC3)ccc1C(=O)O`
43.3

###

# Tested on: 501Mel cells (parental)
# Test name: Kinase inhibitor library screening, PrestoBlue cell viability, 1 or 10 μM, 72 h
# Conditions: 501Mel Parental; 10μΜ; 72 h; in %
# Protocol: After 72 h of treatment, cell viability was assessed using the PrestoBlue Cell Viability Reagent (ThermoFisher Scientific). Measurements were performed with the CLARIOstar Monochromator microplate reader (BMG Labtech). Kinase inhibitor library screening. […] Drugs were added at 2 different concentrations, 1 and 10 μM, for 72 h and cell viability was assessed using the PrestoBlue Cell Viability assay. […] Each cell line was analyzed at least in duplicate. […]
Measured Cell viability in kinase inhibitor library screening, 501Mel Parental, 10μΜ, listed per entry for reference.
# respond with the number and nothing more

# annotated cases, reported Cell viability in kinase inhibitor library screening, 501Mel Parental, 10μΜ shown
{"Molecule": "O=C1NC(=O)/C(=C/c2ccc3nccc(-c4ccncc4)c3c2)S1", "Result": 1.4}
{"Molecule": "COc1ccc(COc2cc3oc(=O)c4cc(C(C)O)ccc4c3cc2OC)cc1 (stereo not shown)", "Result": 80.1}

Requested field: Cell viability in kinase inhibitor library screening, 501Mel Parental, 10μΜ. Item: `CCn1nnc2c(N3CCOCC3)nc(-c3ccc(NC(=O)Nc4ccc(C(=O)N5CCN(C)CC5)cc4)cc3)nc21`
0.476

Requested field: Cell viability in kinase inhibitor library screening, 501Mel Parental, 10μΜ. Item: `COc1ccc(-c2ccc3ncc4c(c3c2)n(-c2ccc(N3CCNCC3)c(C(F)(F)F)c2)c(=O)n4C)cn1`
1.1

Requested field: Cell viability in kinase inhibitor library screening, 501Mel Parental, 10μΜ. Item: `Cc1ccc(-n2nc(C(C)(C)C)cc2NC(=O)Nc2ccc(OCCN3CCOCC3)c3ccccc23)cc1`
84.9

Requested field: Cell viability in kinase inhibitor library screening, 501Mel Parental, 10μΜ. Item: `COc1cc(OC)c(/C=C/S(=O)(=O)Cc2ccc(OC)c(NCC(=O)O)c2)c(OC)c1`
26.0

Requested field: Cell viability in kinase inhibitor library screening, 501Mel Parental, 10μΜ. Item: `C[C@@H](Oc1cc(-n2cnc3ccc(CN4CCN(C)CC4)cc32)sc1C(N)=O)c1ccccc1C(F)(F)F`
16.7
